TGT: GST-14-3-3
MEASUREMENT DESCRIPTION: biotinylated peptide on streptavidin-agarose beads, pull-down, trypsin digest, MALDI-MS, ion m/z1245.7
Non-standard residues stand in square brackets, D forms with d. *: point of attachment. Biotin = O=C1N[C@H]2[C@H](CS[C@H]2CCCCC(=O)*)N1; pT = C[C@@H](OP(=O)(O)O)[C@H](N)C(=O)O
ENDPOINT: signal size

binder="Biotin-SGSGVLIKRRS[pT]EL-OH (SMILES CC[C@H](C)[C@H](NC(=O)[C@H](CC(C)C)NC(=O)[C@@H](NC(=O)CNC(=O)[C@H](CO)NC(=O)CNC(=O)[C@H](CO)NC(=O)CCCC[C@@H]1SC[C@@H]2NC(=O)N[C@@H]21)C(C)C)C(=O)N[C@@H](CCCCN)C(=O)N[C@@H](CCCNC(=N)N)C(=O)N[C@@H](CCCNC(=N)N)C(=O)N[C@@H](CO)C(=O)N[C@H](C(=O)N[C@@H](CCC(=O)O)C(=O)N[C@@H](CC(C)C)C(=O)O)[C@@H](C)OP(=O)(O)O) [COXG biotinylated phosphopeptide (Biotin-…*EL-COOH)]" endpoint="signal size" measured_value=500
